tested on: SEM cells; test: cell viability relative to DMSO control; higher = less cytotoxic; settings: RPMI 5 mM glucose + 10% dialyzed FBS; 48 h; 0.569 µM
Listed next: entries and their corresponding cell viability.
Kindly answer with a numeric value in %, unit omitted.

These solved cases illustrate the format of a correct answer.
{"columns": ["compound", "result_value"],
 "data": [
  ["CC(=O)CC(C1=CC=CC=C1)C/2=C(O)/C3=CC=CC=C3OC2=O (stereo not given)", 119],
  ["CCn1c(-c2nonc2N)nc2cncc(CNC3CCNCC3)c21", 137],
  ["CC(C)[C@@H](C[S+](=O)([O-])C(C)C)N1C(=O)[C@@](C)(CC(=O)O)C[C@H](c2cccc(Cl)c2)[C@H]1c1ccc(Cl)cc1", 100]
]}

What does the record list as cell viability for `CN1\C(=C(\O)C2=C(C=CS2)[S+]1([O-])=O)C(=O)NC3=CC=CC=N3` ?
104

Proceed to `c1cc(CN2CCCNCCNCCCNCC2)ccc1CN1CCCNCCNCCCNCC1`
106

Proceed to `CC(C)Nc1cc(C(F)(F)F)cc2nc(NC(=O)c3cccnc3)nn12`
101

Proceed to CCOc1cc(N)c(Cl)cc1C(=O)NCC1CN(Cc2ccc(F)cc2)CCO1 (stereo not given)
112

Proceed to `CN(C/C=C/C#CC(C)(C)C)Cc1cccc2ccccc12`
96.6
